Exercise: state measured melting point for each of the compounds provided.

Here's what some known entries look like.
CC(=O)c1[nH]cnc1C; 140 to 142 °C
COC(=O)CCCC(=O)c1cc2c(c(S(=O)(=O)Cl)c1)OCC2; 78 to 79 °C
CC(=O)CC(=O)C=Cc1ccc2[nH]ccc2c1; 136 to 137 °C

Dear colleague, could you send me melting point for each of the items below? Thanks.
1. CC[C@@]12C/C(=C\c3ccccc3)C(=O)C[C@H]1CCc1cc(O)ccc12
2. ON=C(c1ccccc1)c1ccc(OCCCOc2ccc(C(=NO)c3ccccc3)cc2)cc1
3. O=S(=O)(c1cccs1)c1ccc(O)c(Cl)c1Cl
4. CC(=O)c1c(C)nn2ccccc12
5. ClCC(CCl)(CCl)c1cc(Cl)nnc1Cl

Solution:
1. 265 to 266 °C
2. 205 to 208 °C
3. 220 °C
4. 85.2 to 88.1 °C
5. 111 to 112 °C

# per-item lookup of melting point; items listed below
1. CC(=O)SCC1CCCCCCCSC[C@@H](C(=O)OCc2ccccc2)NC1=O (stereo partly specified)
2. COC(=O)CCc1ccc(C(=O)CCl)cc1
3. COc1ccc(Nc2ccc(Nc3ncnc4cc(-c5ccc(OC)cc5)sc34)cc2)cc1

Solution:
1. 192 to 193 °C
2. 90 °C
3. 159 to 169 °C

* * *

I'd be grateful if you could share measured melting point for these entries.

CCC1=C(c2cccc(C(F)(F)F)c2)n2ncc(C#N)c2N(C(=O)CCl)C1; 150 to 152 °C
C[C@@H]1CN(Cc2ccccc2)C[C@H]1N (relative stereo); 74 to 80 °C
COc1ccc(/C=C/CN2CCN(C3c4ccccc4CCc4ncccc43)CC2)cc1[N+](=O)[O-] (stereo not drawn); 159 to 161 °C
OCC1OC(n2cnc3c(NCc4ccc(Br)cc4)ncnc32)C(O)C1O (stereo not drawn); 179 °C
COC(=O)C(C(=O)c1ccc(Cn2ccc3ccc(NC(=O)CC4CCCC4)cc32)c(OC)c1)S(=O)(=O)c1ccccc1 (stereo not drawn); 93 to 98 °C
CC(C(=O)O)c1ccc(-c2ccc(Br)cc2Br)cc1 (stereo not drawn); 114 to 116 °C

Would you mind giving melting point for every molecule in the list below?
1. CS(=O)c1ccc(C(=O)O)cc1[N+](=O)[O-] (stereo not drawn)
2. COc1cc(C(C)=O)ccc1OCCCCN1CCC(C(O)(c2ccc(F)cc2)c2ccc(F)cc2)CC1
3. CSc1ccc(C(=O)CC(F)(F)F)cc1
4. CNc1c(F)cc2c(=O)c(C(=O)O)cn(-c3nc(N)c(F)cc3F)c2c1Cl
5. COCN1C(C)=C(C(=O)O)[C@H](c2cccc([N+](=O)[O-])c2)C(C(=O)OCOC(=O)C(C)(C)C)=C1C
6. CCCCCCCCCCCCCCCCSCC(CNS(=O)(=O)CCCI)n1nnc(C)n1 (stereo not drawn)
7. CCCCC[C@H]1CC[C@H](c2ccc(C(N)=O)cc2)CC1

Solution:
238 to 239 °C
104 to 105 °C
118 to 120 °C
251 to 253 °C
84 to 85 °C
50 to 51 °C
234 to 235 °C

Fill in melting point for each of the 2 molecules listed.
1. Cc1ccc(N(C)N=C(N)C(N)=O)cc1OCC(F)(F)C(F)(F)F
2. COC(=O)CC1CC(CCc2c(-c3ccc(F)cc3)c(-c3ccccc3)c(C(=O)Nc3ccc(C(=O)OC)cn3)n2C(C)C)OC(C)(C)O1 (stereo not drawn)

Solution:
1. 129 to 130 °C
2. 77 to 84 °C

Value sought for every listed molecule: melting point.
1. Cc1ccc(S(=O)(=O)OC[C@H](CNC(=O)c2ccc(Cl)s2)OC(=O)Nc2ccc(N3CCOCC3=O)cc2)cc1
2. COC(=O)C[C@@H](CC(=O)C=Cc1c(-c2ccc(F)cc2)c(-c2ccccc2)c(C(=O)Nc2cccc(S(N)(=O)=O)c2)n1C(C)C)O[Si](C)(C)C(C)(C)C
3. CCOc1ccc(O)c(F)c1F
4. Cc1nc2c(Cl)nccc2n1C
5. COCc1nnc(-c2ccc3occ(-c4cccc(OC(F)(F)F)c4)c3c2)o1
6. CC(=O)Nc1c(C(=O)c2ccccc2)[nH]c2ccc(NS(C)(=O)=O)cc12

Solution:
1: 142 °C; 2: 90 to 91 °C; 3: 73 °C; 4: 197 to 198 °C; 5: 90 to 91 °C; 6: 260 to 261 °C

For every item in the list below, what is its measured melting point?
1. COc1ccccc1-c1ccc(C)cc1
2. O=C(O)CSc1nccc(-n2cc(C3c4ccccc4C=Cc4ccccc43)c(=S)[nH]c2=O)n1
3. CCCCCCC#CC(O)C1=Nc2ccccc2C(=O)C1C (stereo not drawn)
4. CC(=O)N(C)c1cnc2ccc(Cl)cc2c1-c1ccccc1
5. CNC(=O)c1cccc(F)c1Nc1nc(Nc2ccc3c(c2)NC(=O)C(N2CCOCC2)CC3)ncc1Cl (stereo not drawn)
6. CCCCCCc1ccc(O)c(C(=O)O)c1

Solution:
1: 70 to 72 °C; 2: 190 °C; 3: 148 to 149 °C; 4: 268 to 270 °C; 5: 270 to 271 °C; 6: 83 to 84 °C

I would be grateful if you could provide melting point for each of the following entries.
1. O=[N+]([O-])c1ccc(SCc2cnc3ccccn23)cc1
2. CC#CCOc1ccc(S(=O)(=O)C2(C(=O)O)CCN(C(C)C)CC2)cc1

Solution:
["174 to 175 °C", "233 °C"]

Could I get melting point for every one of these entries?
1. COc1ccc(-c2cc(=Nc3c(C)cc(C)cc3C)n(C)c(=O)n2CC(=O)O)cc1OC
2. CCOC(=O)C1=C(C)NC(C#N)=C(C(=O)OCC)C1c1ccccc1C(F)(F)F (stereo not drawn)
3. C=CC(=O)OC1(C)CCCC2C3C=CC(C3)C21 (stereo not drawn)
4. Oc1ccc(-c2noc(C3(C(O)(C4CC4)C4CC4)CC3)c2-c2ccccc2)cc1
5. COc1cc(COc2nn(-c3ccccc3)cc2/C=C/C(=O)O)ccc1OCc1nc(-c2ccco2)oc1C
6. NC1CCN(c2cccc(Cl)n2)CC1
7. O=c1[nH]c(-c2ccc(F)cc2)nc2ccc(CN3CCOCC3)cc12
8. CC12CCC(F)CC1=CCC1C2CCC2(C)C(O)CCC12 (stereo not drawn)

Solution:
148 to 150 °C
140 to 143 °C
41 to 42 °C
169 to 170 °C
204 to 205 °C
36 to 38 °C
322 to 323 °C
165 to 166 °C

Exercise: Fill in: melting point of CN1CCN(Cc2ccc(-c3cc4ncc(C#N)c(Nc5ccc(Oc6ccccc6)cc5)c4s3)cc2)CC1 is ___
Solution: 199 to 201 °C

* * *

Can you tell me melting point for the items I'm about to list?

Hi team, please reply with melting point for each item in this list.
1. CCOC(=O)C(CC(N)=O)(C(=O)OCC)n1cccc1
2. Cc1ncccc1NC(=NC#N)NC(NC(=O)Cc1ccc(Cl)cc1)C(C)(C)C (stereo not given)
3. CCOC(=NC(=O)CCl)N1Cc2ccccc2-c2ccccc2C1
4. CC1=NN(c2ccc(CO)cc2)C(=O)C1
5. CO[C@@H]1CN(CC2OCCO2)CC[C@@H]1NC(=O)c1cc(Cl)c(N)c2c1OCC2 (relative stereo)

Solution:
1. 94 to 95 °C
2. 180 to 181 °C
3. 87 to 89 °C
4. 139 to 140 °C
5. 149 °C

* * *

So I've got a bunch of compounds here, and I need their melting point values.

CC1(C)Oc2ccc(S(C)(=O)=O)cc2[C@@H](N2CCCS2(=O)=O)[C@@H]1O (relative stereo); 220 to 221 °C

State the recorded melting point for every item in the following list.
1. Cc1nnc(C2=C(O)c3ccccc3S(=O)(=O)N2C)o1
2. CCOc1c(C(C)=O)cnc2c1cnn2Cc1ccco1
3. O=C(Cl)[C@@H]1CCC(=O)N1C(=O)OCc1ccccc1
4. O=C(c1ccc(O)cc1)N1CCN(CC(O)Cn2c3ccccc3c3ccccc32)CC1 (stereo not given)
5. O=C1C(=Cc2cccc(OCCCCl)c2)Cc2ccccc21
6. Cn1c(C(F)(F)F)ccc(-c2cc(NS(C)(=O)=O)c(Cl)cc2F)c1=O
7. CC(=O)Nc1nc2c(s1)-c1c(cnn1C(N)=O)CC2

Solution:
1: 226 to 227 °C; 2: 139 to 141 °C; 3: 65 to 70 °C; 4: 184 °C; 5: 73 to 75 °C; 6: 113 to 114 °C; 7: 265 to 270 °C

Please look at the items below and tell me melting point for each one, in order.
1. CN(C)C(=O)c1nc(-c2ccccc2)nc2[nH]c3cc(Cl)ccc3c12
2. CC(=NOCCO)c1ccc(-c2ccc(C)cc2)cc1

Solution:
232 to 233 °C
142 to 144 °C
